Assay: qHTS for Inhibitors of human tyrosyl-DNA phosphodiesterase 1 (TDP1): qHTS in cells in absence of CPT; note: nearly all actives have a fitted effect of over 55% in size; note: potency is the fitted concentration of half-maximal effect
Details: DT40 Tdp1-/- hTDP1 cells, no CPT, ATP luminescence, 48 h
Method: Human tyrosyl-DNA phosphodiesterase 1 (TDP1) is a novel repair gene, and we propose to use it as a new target for anticancer drug development. […] For the primary screen, Tdp1-/-;hTDP1 cells will be exposed to small molecules in the presence or absence of CPT, and their growth kinetics will be evaluated after 48 hours by measuring ATP activity. […] The hit compounds will then be evaluated in the presence or absence of CPT using Tdp1-/- cells. […]
Screen size: about 420,000 compounds; about 64,000 (15%) were called active. Roughly 27% stayed inconclusive and do not appear here. A selection follows.
property_label: Potency

molecule: CN=C1SC(CC(=O)Nc2ccc(C(=O)O)cc2)C(=O)N1C (stereo unspecified)
result: inactive
//
molecule: CSc1nnnn1-c1c(C)cc(C)cc1C
result: inactive
//
molecule: FC(F)(F)c1ccccc1-c1cc(NCc2ccccc2)ncn1
result: 9.2 µM (active)
//
molecule: O=C(Nc1sc2c(c1-c1nc3ccccc3[nH]1)CCCC2)C1CC1
result: inactive
//
molecule: CCCc1nc(N2CCN(C)CC2)c2sc(=S)n(-c3ccccc3)c2n1
result: 16.4 µM (active)

Request: Tell me the measured Potency of CC(=O)Nc1ccc(SCC(=O)NC(=O)c2ccc(Cl)cc2)cc1 , please.
Result: inactive

====

Experiment: qHTS for Inhibitors of human tyrosyl-DNA phosphodiesterase 1 (TDP1): qHTS in cells in absence of CPT; note: nearly all actives have a fitted effect of over 55% in size
Settings: DT40 Tdp1-/- hTDP1 cells, no CPT, ATP luminescence, 48 h
In all, about 420,000 compounds went through this assay and about 64,000 (15%) were called active. Another 27% or so got no clear call; they are omitted. Calls come from the whole dose curve; as a rule, active = well fitted inhibition curve with a large enough effect; inconclusive = small, poorly fitted or top-dose-only effect; inactive = flat fitted curve, though single readings scatter. The list is a sample of the results.
Hi! Could you answer with just one of these? active, inactive

molecule: O=C(Oc1cccc(N2C(=O)C3C4c5ccccc5C(c5ccccc54)C3C2=O)c1)c1ccco1 (stereo unspecified)
answer_label: active

molecule: CC(=O)Oc1cccc(N2C(=O)C3CC=C(Cl)CC3C2=O)c1 (stereo unspecified)
answer_label: inactive

molecule: O=C(NC1CC(=O)N(c2ccccc2)C1)c1ccco1 (stereo unspecified)
answer_label: inactive

molecule: O=C(CNC(=O)c1ccco1)OCC(=O)c1ccccc1
answer_label: inactive

molecule: O=C(Cc1ccccc1)NNS(=O)(=O)c1ccc([N+](=O)[O-])cc1
answer_label: inactive

Now look at this entry.
Request: What was the test verdict on O=C(NNS(=O)(=O)Cc1ccccc1)c1ccc([N+](=O)[O-])cc1 ?
Result: inactive

====

Assay: qHTS for Inhibitors of human tyrosyl-DNA phosphodiesterase 1 (TDP1): qHTS in cells in absence of CPT; note: nearly all actives have a fitted effect of over 55% in size
Details: DT40 Tdp1-/- hTDP1 cells, no CPT, ATP luminescence, 48 h
Method: Human tyrosyl-DNA phosphodiesterase 1 (TDP1) is a novel repair gene, and we propose to use it as a new target for anticancer drug development. […] For the primary screen, Tdp1-/-;hTDP1 cells will be exposed to small molecules in the presence or absence of CPT, and their growth kinetics will be evaluated after 48 hours by measuring ATP activity. […] The hit compounds will then be evaluated in the presence or absence of CPT using Tdp1-/- cells. […]
Among all 420,000 compounds or so, about 64,000 (15%) were called active. About 27% were inconclusive and are not listed. Calls come from the whole dose curve; as a rule, active = well fitted inhibition curve with a large enough effect; inconclusive = small, poorly fitted or top-dose-only effect; inactive = flat fitted curve, though single readings scatter. Only a sample is shown.
Your answer must be one of the following: 1.0 = active, 0.0 = inactive

Here are 2 compounds together with their reported answers.
compound: CC(N)(C(=O)O)c1ccc(-c2nn[nH]n2)cc1 (centres undefined)
answer_label: 0.0

compound: O=C(NNC(=O)c1ccccc1O)c1ccccc1O
answer_label: 1.0

Request: Outcome logged for CCN(CC(=O)NC(=O)NCc1ccccc1)Cc1nc2ccccc2c(=O)[nH]1 in this assay:
Result: 0.0

Request: Which outcome did this test record for the compound COc1ccc(/C=C/CN2CCN(Cc3ccc(C)cc3)C(CCO)C2)cc1 (centres undefined) ?
Result: 0.0

Request: Recorded call for Cc1csc(SCC(=O)Nc2ccc(C)c(S(=O)(=O)N(C)C)c2)n1 ?
Result: 1.0

Request: What call does the record list for Cc1nc2c(-c3ccc(F)cc3)c(C)nn2c(C)c1CCC(=O)N1CCN(c2ccccn2)CC1 ?
Result: 0.0

====

Assay: qHTS for Inhibitors of human tyrosyl-DNA phosphodiesterase 1 (TDP1): qHTS in cells in absence of CPT; note: nearly all actives have a fitted effect of over 55% in size
Settings: DT40 Tdp1-/- hTDP1 cells, no CPT, ATP luminescence, 48 h
Screen size: about 420,000 compounds; about 64,000 (15%) were called active. Inconclusive results (about 27%) are left out. Calls come from the whole dose curve; as a rule, active = well fitted inhibition curve with a large enough effect; inconclusive = small, poorly fitted or top-dose-only effect; inactive = flat fitted curve, though single readings scatter. These entries were drawn from the full list.
Answer with one of the outcomes active, inactive

Request: Entry COc1cc(OC)cc(C(=O)NCC(=O)OCc2csc(-c3ccccc3)n2)c1 : call = ?
Result: active

Request: What was the test verdict on Cc1cccc2c3c(ccc12)C1=C(C(=O)C3=O)C(C)CO1 (configuration not stated) ?
Result: inactive

====

Assay: qHTS for Inhibitors of human tyrosyl-DNA phosphodiesterase 1 (TDP1): qHTS in cells in absence of CPT; note: nearly all actives have a fitted effect of over 55% in size
Details: DT40 Tdp1-/- hTDP1 cells, no CPT, ATP luminescence, 48 h
The campaign covered roughly 420,000 compounds. About 64,000 (15%) were called active. Inconclusive results (about 27%) are left out. Calls follow the shape of the dose curve; as a rule, active = well fitted inhibition curve with a large enough effect; inconclusive = small, poorly fitted or top-dose-only effect; inactive = flat fitted curve, though single readings scatter. A selection follows.
Hi there, use one of these labels in your reply, thanks! active, inactive

Solved entries:
compound: O=C(Cn1c(-c2cncs2)nc2ccccc21)NC1CCCC1
answer_label: inactive
//
compound: CCN(CC(=O)NCc1cccs1)C(=O)/C=C/c1ccc(C)cc1
answer_label: inactive
//
compound: CCCc1[nH]nc2c1C(c1ccc(Br)s1)C(C#N)=C(N)O2 (stereo unspecified)
answer_label: active
//
compound: O=C(Cn1c(-c2cscn2)nc2ccccc21)Nc1ccc(Cl)cc1
answer_label: active
//
compound: COc1ccc(C)cc1NC(=O)CN(C)S(=O)(=O)c1ccc2c(c1)n(C)c(=O)c(=O)n2C
answer_label: inactive

Field: next compound
Request: Outcome logged for O=C(Cc1c[nH]c2ccccc12)N/N=C/c1cccc(F)c1 in this assay:
Result: active

====

Test: qHTS for Inhibitors of human tyrosyl-DNA phosphodiesterase 1 (TDP1): qHTS in cells in absence of CPT; note: nearly all actives have a fitted effect of over 55% in size; note: potency is the fitted concentration of half-maximal effect
Conditions: DT40 Tdp1-/- hTDP1 cells, no CPT, ATP luminescence, 48 h
In all, about 420,000 compounds went through this assay and about 64,000 (15%) were called active. Inconclusive results (about 27%) are left out. A selection follows.
property_label: Potency

Some entries whose results are on file:
compound: O=C1CCCN1CCCNc1ncnc2c1[nH]c1ccccc12
Potency: inactive
//
compound: COc1cccc(CNn2cn[nH]c2=S)c1OCc1ccccc1
Potency: inactive
//
compound: CC(C)CCN1CCN=C1N(C)C
Potency: inactive
//
compound: O=C(c1cccs1)N(Cc1cc2ccccc2[nH]c1=O)CC1CCCO1 (stereo not drawn)
Potency: inactive
//
compound: Cc1cc(C)nc(Nc2cc([N+](=O)[O-])ccc2C)n1
Potency: inactive

Request: Which measured Potency value corresponds to COc1cccc(CNCCSc2nnnn2C)c1OCc1ccccc1Cl ?
Result: 20.6 µM (active)

Request: Returns the measured Potency for the input compound. Input: COc1ccc(Sc2ccc(NC(=O)c3cccc(Cl)c3)cc2C#N)cc1
Result: 23.1 µM (active)

Request: # get_value(readout='Potency', item= O=C(Cc1ccc([N+](=O)[O-])cc1)N/N=C/c1ccco1 )
Result: inactive

====

Assay: qHTS for Inhibitors of human tyrosyl-DNA phosphodiesterase 1 (TDP1): qHTS in cells in absence of CPT; note: nearly all actives have a fitted effect of over 55% in size
Settings: DT40 Tdp1-/- hTDP1 cells, no CPT, ATP luminescence, 48 h
About 64,000 (15%) of roughly 420,000 compounds were called active. Roughly 27% stayed inconclusive and do not appear here. The call rests on the fitted dose curve; in most records, active means well fitted inhibition curve with a large enough effect; inconclusive means small, poorly fitted or top-dose-only effect; inactive means flat fitted curve, though single readings scatter. A selection follows.
Could you please pick one outcome from this set? active, inactive

molecule: COc1cc(/C=C(\C#N)C(=O)Nc2ccc3ccccc3c2)c([N+](=O)[O-])cc1OC
answer_label: inactive
//
molecule: Cc1cccc(CN2CCN(C3CN(Cc4cn(Cc5cc(C)cc(C)c5)nn4)S(=O)(=O)C3)CC2)c1 (stereo not drawn)
answer_label: active
//
molecule: COc1ccc(-c2cn(-c3ccc(OC)cc3)c(=S)[nH]2)cc1
answer_label: active

Request: Please let me know the test result on file for O=S1(=O)CC(N2CCN(CCO)CC2)CN1Cc1cn(Cc2ccc(Cl)cc2)nn1 (stereo not drawn) .
Result: inactive

Request: For this molecule, state the assay outcome: CCC(C)CN1C(=O)CN(S(C)(=O)=O)CC1(C)C(=O)Nc1ccc2c(c1)OCCO2 (stereo not drawn)
Result: inactive

Request: I'd appreciate the recorded outcome for COc1ccc(CNC(=O)C(C)NCc2ccccc2Cl)cc1 (stereo not drawn) from this test.
Result: inactive

Request: Each molecule tested received a call. Report the one for Cc1cc(C)cc(C(=O)NC(CC(N)=O)c2ccc(N3CCC(N4CCCCC4)CC3)c([N+](=O)[O-])c2)c1 (stereo not drawn) .
Result: inactive
